# Tested on: human MDA-MB-231 breast tumor cells
# test description: Growth assay (Cell Titer Glo)
# Type: cell-based
# experimental conditions: MDA-MB-231; Tables 1 and 2; read-out: Growth Inhibition IC50, μM (95% CI)
This section presents molecules with their documented IC50 values.

INSERT INTO measurements (molecule, assay_value) VALUES
  ('COC(=O)C1Cc2c([nH]c3ccccc23)C(c2c(Cl)cccc2Cl)N1C(=O)CCl (centres unmarked) [Compound 2r]', '0.42 µM');

// next entry
Query string: Please give the measured IC50 for this molecule: COC(=O)C1Cc2c([nH]c3ccccc23)C(c2c(Cl)cccc2Cl)N1C(=O)CCl (centres unmarked) [Compound 2q]
Result string: 0.05 µM
